tgt: ZAP70 (Homo sapiens, UniProt P43403)
Sequence (P43403 whole entry): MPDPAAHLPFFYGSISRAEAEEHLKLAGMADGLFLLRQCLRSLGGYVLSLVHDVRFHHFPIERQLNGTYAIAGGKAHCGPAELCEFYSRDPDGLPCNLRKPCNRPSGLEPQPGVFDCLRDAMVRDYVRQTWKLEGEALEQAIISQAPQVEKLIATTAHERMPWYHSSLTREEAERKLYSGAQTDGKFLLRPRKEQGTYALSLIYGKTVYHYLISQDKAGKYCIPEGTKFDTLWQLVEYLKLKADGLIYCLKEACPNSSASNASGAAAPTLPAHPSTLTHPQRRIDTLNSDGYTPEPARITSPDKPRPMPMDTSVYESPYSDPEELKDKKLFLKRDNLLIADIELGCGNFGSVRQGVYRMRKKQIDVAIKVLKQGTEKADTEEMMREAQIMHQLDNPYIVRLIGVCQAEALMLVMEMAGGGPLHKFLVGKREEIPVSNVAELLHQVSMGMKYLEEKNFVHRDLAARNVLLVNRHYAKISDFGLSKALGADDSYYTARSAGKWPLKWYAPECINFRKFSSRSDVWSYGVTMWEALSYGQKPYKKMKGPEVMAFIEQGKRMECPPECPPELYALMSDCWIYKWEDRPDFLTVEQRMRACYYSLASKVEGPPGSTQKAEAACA
assay name: HTS ATP-utilizing enzyme assay, off-chip mobility-shift (Caliper HTS 250)
Assay type: biochemical
assay conditions: kinase named = inhibitory activity/selectivity; test compound 10 μM; active = greater than three-sigma from mean
measurement type: Activity

structure_smiles_string=COc1ccc(-c2csc(N(CCCN3CCOCC3)C(=O)c3c(C)noc3C)n2)cc1 measurement_type=Activity measurement=ZAP70
structure_smiles_string=COc1ccc(-c2csc(N(CCCN3CCOCC3)C(=O)c3cccc(Cl)n3)n2)cc1 measurement_type=Activity measurement=ZAP70
structure_smiles_string=COc1ccc(-c2csc(N(CCCN3CCOCC3)C(=O)c3ccccc3C#N)n2)cc1 measurement_type=Activity measurement=ZAP70
structure_smiles_string=COc1ccc(-c2csc(N(CCCN3CCOCC3)C(=O)c3snnc3C)n2)cc1 measurement_type=Activity measurement=ZAP70

Can you look up the measured Activity of "COc1ccc(-c2csc(N(CCCN3CCOCC3)C(=O)c3sccc3Br)n2)cc1" for me?
ZAP70

Can you look up the measured Activity of "COc1ccc(-c2csc(N(CCCN3CCOCC3)C(=O)c3ccc(Br)s3)n2)cc1" for me?
ZAP70

Can you look up the measured Activity of "COc1ccc(-c2csc(N(CCCN3CCOCC3)C(=O)c3ccc([N+](=O)[O-])s3)n2)cc1" for me?
ZAP70

Can you look up the measured Activity of "COc1ccc(-c2csc(N(CCCN3CCOCC3)C(=O)c3ccc(SC)s3)n2)cc1" for me?
ZAP70

Can you look up the measured Activity of "COc1ccc(-c2csc(N(CCCN3CCOCC3)C(=O)c3ccc(C(C)=O)s3)n2)cc1" for me?
ZAP70

Can you look up the measured Activity of "COc1ccc(-c2csc(N(CCCN3CCOCC3)C(=O)c3nsc(Cl)c3Cl)n2)cc1" for me?
ZAP70

Can you look up the measured Activity of "COc1ccc(-c2csc(N(CCCN3CCOCC3)C(=O)c3conc3C)n2)cc1" for me?
ZAP70

Where do these numbers come from? They come from patent US7795290B2.
